- assayNotes: In vivo pharmacokinetic study in mice
- assayConditions: male, mouse, plasma; CD-1 mice; PO 10 mg/kg

- substanceSmiles: "[2H]C([2H])([2H])Oc1nc(C(=O)NS(C)(=O)=O)ccc1NCC#Cc1cc2c(N[C@@H]3CCN(C)C[C@@H]3F)cccn2c1CC(F)(F)F"
  AUC(0-t): "15.7 µM·h"

====

- assayNotes: In vivo pharmacokinetic study in rats
- assayConditions: male, rat, plasma; SD rats; PO 10 mg/kg
readout: Cmax (µM)

- substanceSmiles: "[2H]C([2H])([2H])Oc1nc(C(=O)NS(C)(=O)=O)ccc1NCC#Cc1cc2c(N[C@@H]3CCN(C)C[C@@H]3F)cccn2c1CC(F)(F)F"
  valueUnits: "µM"
  measurement: 8.9

====

- assayNotes: Metabolic stability test in hepatocytes
- Assay type: in vitro ADME
- assayConditions: cryopreserved hepatocytes, Human hepatocytes, read-out: In vitro t1/2
readout: half-life at 1 μM (h)

- compound: "COc1cc(S(C)(=O)=O)ccc1NCC#Cc1nc2c(N[C@@H]3CCN(C)C[C@@H]3F)cccn2c1CC(F)(F)F [Cpd-B, reference compound]"
  valueUnits: "h"
  measurement: 1.37

====

- assayNotes: Metabolic stability test in hepatocytes
- Format: in vitro ADME
- assayConditions: cryopreserved hepatocytes in suspension, Mouse hepatocytes, read-out: In vitro t1/2
- Method: The test compound and the control drug verapamil powder were prepared into a high concentration stock solution using DMSO, and diluted to a 100 μM working solution with 50% acetonitrile/water before use, with final concentrations of 1 μM for the test compound and verapamil. […] All data calculations were performed using Microsoft Excel software. Peak areas were detected by extracting the ion chromatogram. […] The in vitro half-life (t1/2) was calculated by the slope: […]
readout: half-life at 1 μM

- compound: "[2H]C([2H])([2H])Oc1nc(C(=O)NS(C)(=O)=O)ccc1NCC#Cc1cc2c(N[C@@H]3CCN(C)C[C@@H]3F)cccn2c1CC(F)(F)F [Cpd-2]"
  readout: "half-life at 1 μM"
  measurement: "> 8.52 h"
- compound: "CNC(=O)c1ccc(NCC#Cc2cc3c(N[C@@H]4CCN(C)C[C@@H]4F)cccn3c2CC(F)(F)F)c(OC)c1 [Cpd-C, reference compound]"
  readout: "half-life at 1 μM"
  measurement: "0.733 h"
- compound: "COc1nc(C(=O)NS(C)(=O)=O)ccc1NCC#Cc1cc2c(N[C@@H]3CCN(C)C[C@@H]3F)cccn2c1CC(F)(F)F [Cpd-1]"
  readout: "half-life at 1 μM"
  measurement: "> 8.52 h"

====

- assayNotes: Metabolic stability test in hepatocytes
- Format: in vitro ADME
- assayConditions: cryopreserved hepatocytes, Mouse hepatocytes, read-out: In vitro t1/2
readout: half-life at 1 μM (min)

- molecule: "COc1cc(S(C)(=O)=O)ccc1NCC#Cc1nc2c(N[C@@H]3CCN(C)C[C@@H]3F)cccn2c1CC(F)(F)F [Cpd-B, reference compound]"
  valueUnits: "min"
  measurement: 7

====

Reported half-life at 1 μM values for the following molecules.
- assayNotes: Metabolic stability test in hepatocytes
- Type: in vitro ADME
- assayConditions: cryopreserved hepatocytes in suspension, Human hepatocytes, read-out: In vitro t1/2
readout: half-life at 1 μM

- molecule: "CNC(=O)c1ccc(NCC#Cc2cc3c(N[C@@H]4CCN(C)C[C@@H]4F)cccn3c2CC(F)(F)F)c(OC)c1 [Cpd-C, reference compound]"
  readout: "half-life at 1 μM"
  measurement: "1.25 h"
- molecule: "COc1nc(C(=O)NS(C)(=O)=O)ccc1NCC#Cc1cc2c(N[C@@H]3CCN(C)C[C@@H]3F)cccn2c1CC(F)(F)F [Cpd-1]"
  readout: "half-life at 1 μM"
  measurement: "> 8.52 h"
- molecule: "[2H]C([2H])([2H])Oc1nc(C(=O)NS(C)(=O)=O)ccc1NCC#Cc1cc2c(N[C@@H]3CCN(C)C[C@@H]3F)cccn2c1CC(F)(F)F [Cpd-2]"
  readout: "half-life at 1 μM"
  measurement: "> 8.52 h"

====

- assayNotes: In vivo pharmacokinetic study in mice
- assayConditions: male, mouse, plasma; CD-1 mice; IV 1 mg/kg

- molecule: "[2H]C([2H])([2H])Oc1nc(C(=O)NS(C)(=O)=O)ccc1NCC#Cc1cc2c(N[C@@H]3CCN(C)C[C@@H]3F)cccn2c1CC(F)(F)F [Cpd-2]"
  valueUnits: "µM·h"
  AUC(0-t): 1.7

====

Reported microsomal CLint at 1 μM values for the following compounds.
- assayNotes: Metabolic stability in liver microsomes
- Assay type: in vitro ADME
- assayConditions: ICR/CD-1, pH 7.4; Mouse liver microsomes; read-out: In vitro Clint (μL/min/mg protein)
- Experimental: The test compound and the positive control compound (dextromethorphan as a control compound) were dissolved respectively in DMSO to prepare a stock solution with a concentration of 10 mM, and the above stock solution was diluted into 200 μM working solution with DMSO. […] The slope (ke) was determined by plotting the natural logarithm of the percentage of compound remaining against time, and the Tin and intrinsic clearance (CLint) were calculated based on the first-order kinetic formula: […]
readout: microsomal CLint at 1 μM (µL/min/mg)

- compound: "[2H]C([2H])([2H])Oc1nc(C(=O)NS(C)(=O)=O)ccc1NCC#Cc1cc2c(N[C@@H]3CCN(C)C[C@@H]3F)cccn2c1CC(F)(F)F"
  measurement: 12.6
- compound: "COc1nc(C(=O)NS(C)(=O)=O)ccc1NCC#Cc1cc2c(N[C@@H]3CCN(C)C[C@@H]3F)cccn2c1CC(F)(F)F"
  measurement: 13.7
- compound: "CNC(=O)c1ccc(NCC#Cc2cc3c(N[C@@H]4CCN(C)C[C@@H]4F)cccn3c2CC(F)(F)F)c(OC)c1 [Cpd-C, reference compound]"
  measurement: 83.9

====

- assayNotes: Metabolic stability test in hepatocytes
- Format: in vitro ADME
- assayConditions: cryopreserved hepatocytes in suspension, Mouse hepatocytes, read-out: In vitro Clint (μL/min/10^6 cells)

- compound: "[2H]C([2H])([2H])Oc1nc(C(=O)NS(C)(=O)=O)ccc1NCC#Cc1cc2c(N[C@@H]3CCN(C)C[C@@H]3F)cccn2c1CC(F)(F)F"
  hepatocyte CLint at 1 μM: "< 2.7 µL/min/1e6 cells"
- compound: "COc1nc(C(=O)NS(C)(=O)=O)ccc1NCC#Cc1cc2c(N[C@@H]3CCN(C)C[C@@H]3F)cccn2c1CC(F)(F)F"
  hepatocyte CLint at 1 μM: "< 2.7 µL/min/1e6 cells"
- compound: "CNC(=O)c1ccc(NCC#Cc2cc3c(N[C@@H]4CCN(C)C[C@@H]4F)cccn3c2CC(F)(F)F)c(OC)c1 [Cpd-C, reference compound]"
  hepatocyte CLint at 1 μM: "31.8 µL/min/1e6 cells"

====

- System: CYP3A4/5
- assayNotes: Multi-concentration inhibitory activity curve of CYP3A4/5 enzymes
- Type: in vitro ADME
- assayConditions: pH 7.4, probe midazolam; human liver microsomes; substrate midazolam; read-out: CYP3A4/5 IC50 (μM) (Midazolam)

- substanceSmiles: "COc1nc(C(=O)NS(C)(=O)=O)ccc1NCC#Cc1cc2c(N[C@@H]3CCN(C)C[C@@H]3F)cccn2c1CC(F)(F)F"
  targetDesc: "CYP3A4/5"
  IC50 at 10 min: "> 50 µM"
- substanceSmiles: "[2H]C([2H])([2H])Oc1nc(C(=O)NS(C)(=O)=O)ccc1NCC#Cc1cc2c(N[C@@H]3CCN(C)C[C@@H]3F)cccn2c1CC(F)(F)F"
  targetDesc: "CYP3A4/5"
  IC50 at 10 min: "> 50 µM"

====

- targetDesc: CYP2C9 (Homo sapiens (Human))
- Sequence (P11712 whole entry): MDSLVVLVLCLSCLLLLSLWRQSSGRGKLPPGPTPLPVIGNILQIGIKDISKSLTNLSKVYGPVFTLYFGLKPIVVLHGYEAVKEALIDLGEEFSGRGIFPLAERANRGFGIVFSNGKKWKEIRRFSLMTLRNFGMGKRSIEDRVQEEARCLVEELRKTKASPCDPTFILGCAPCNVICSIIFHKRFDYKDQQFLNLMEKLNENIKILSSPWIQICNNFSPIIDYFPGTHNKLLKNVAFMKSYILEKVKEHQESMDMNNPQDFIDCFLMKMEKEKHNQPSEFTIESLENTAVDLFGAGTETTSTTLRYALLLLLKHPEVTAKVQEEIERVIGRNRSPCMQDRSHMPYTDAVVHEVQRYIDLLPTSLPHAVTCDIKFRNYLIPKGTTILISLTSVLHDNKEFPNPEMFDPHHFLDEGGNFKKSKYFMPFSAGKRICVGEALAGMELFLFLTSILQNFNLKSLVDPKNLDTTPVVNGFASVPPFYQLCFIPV
- assayNotes: Inhibitory activity on CYP isoenzymes at a single concentration
- Assay type: in vitro ADME
- assayConditions: pH 7.4, probe diclofenac; final compound concentration 10 μM; human liver microsomes; substrate diclofenac; read-out: Inhibition rate (%) CYP2C9
- Text: The buffer was filtered through a 0.45 μm filter.

- compound: "[2H]C([2H])([2H])Oc1nc(C(=O)NS(C)(=O)=O)ccc1NCC#Cc1cc2c(N[C@@H]3CCN(C)C[C@@H]3F)cccn2c1CC(F)(F)F [Cpd-2]"
  inhibition at 10 min, 10 µM (%): 8.9
- compound: "COc1nc(C(=O)NS(C)(=O)=O)ccc1NCC#Cc1cc2c(N[C@@H]3CCN(C)C[C@@H]3F)cccn2c1CC(F)(F)F [Cpd-1]"
  inhibition at 10 min, 10 µM (%): 6.7

====

- assayNotes: Metabolic stability test in hepatocytes
- Assay type: in vitro ADME
- assayConditions: cryopreserved hepatocytes in suspension, Rat hepatocytes, read-out: In vitro Clint (μL/min/10^6 cells)
Reported hepatocyte CLint at 1 μM values for the following compounds.

- compound: "CNC(=O)c1ccc(NCC#Cc2cc3c(N[C@@H]4CCN(C)C[C@@H]4F)cccn3c2CC(F)(F)F)c(OC)c1 [Cpd-C, reference compound]"
  hepatocyte CLint at 1 μM: "15.7 µL/min/1e6 cells"
- compound: "COc1nc(C(=O)NS(C)(=O)=O)ccc1NCC#Cc1cc2c(N[C@@H]3CCN(C)C[C@@H]3F)cccn2c1CC(F)(F)F"
  hepatocyte CLint at 1 μM: "< 2.7 µL/min/1e6 cells"
- compound: "[2H]C([2H])([2H])Oc1nc(C(=O)NS(C)(=O)=O)ccc1NCC#Cc1cc2c(N[C@@H]3CCN(C)C[C@@H]3F)cccn2c1CC(F)(F)F"
  hepatocyte CLint at 1 μM: "< 2.7 µL/min/1e6 cells"

This collection of values is drawn from patent US20250304578A1.
